# key: entry, value: EC50 (read off the curve)
- targetOrSystem: T1, JCV VLP (consensus) (JC virus, UniProt P03089 1-354)
- T1 construct: also called JCV VLPs; JC virus VLPs
- procedureSummary: ELISA on plates coated with JCV VLPs, OD 450 nm

binder	outcomeMeasure	measured
2077-28-2 (antibody, V domains shown) VH: EVQLQQSGPELVKPGASMKISCKASGYSFTGYTMNWVKQSHGKNLEWIGLFNPYNGGATYNQRFKGKATLTVDKSSSTAYMDLLSLTSEDSAVYYCTRLRKYGIGDDFFDYWGQGTTLTVSS VL: DIVMTQSHKFMSTSVGDRVSITCKASQDVGTAVAWYQQKPGQSPKLLIYWASTRHTGVPDRFTGSGSGTDFTLTISNVQSEDLADYFCQQYSTYTYTFGGGTKLEIK	EC50 (read off the curve)	~0.09 nM

Request: Which EC50 (read off the curve) value belongs to 2077-4-1 (antibody, V domains shown) VH: EVQLQQSGPELVKPGASMKISCKASGYSFTGYTMNWVKQSHGENLEWIGLFNPYNGGTRYNQKFKGKATLTVDKSSSTAYMELLSLTSEDSAVYYCARLRNYGIGDDFFDYWGQGTTLTVSS VL: DIVMTQSHKFMSTSVGDRVSITCKASQDVGTAVAWYQQKPGQSPKLLIYWASTRHTGVPDRFTGSGSGTDFTLTISNVQSEDLTDYFCQQYSNYPYTFGGGTKLEIK ?
Response: ~0.03 nM
